Procedure Summary: physchem
Condition: methanol:water 80:20 with acetic acid, 20 °C, organic solvent or mixture, thermodynamic from solid
Parameter: solubility

Input line: Item under review: COc1cc2ncnc(Nc3ccc(F)c(Cl)c3)c2cc1OCCCN1CCOCC1 . Reported solubility?
Output line: > 60 mg/mL

----------
Procedure Summary: Solubility of dasatinib in methanol (saturated solution, TGA)
Format: physicochemical
Condition: organic solvent or mixture, thermodynamic from solid, 25° C., analyzed by TGA
Parameter: solubility (µg/mL)
Response body: numeric value in µg/mL, unit text excluded.

Input line: Item under review: Cc1nc(Nc2ncc(C(=O)Nc3c(C)cccc3Cl)s2)cc(N2CCN(CCO)CC2)n1 . Reported solubility?
Output line: 3100

----------
Procedure Summary: physchem
Condition: methanol:water 60:40 with acetic acid, 20 °C, organic solvent or mixture, thermodynamic from solid
Parameter: solubility

Input line: Item under review: COc1cc2ncnc(Nc3ccc(F)c(Cl)c3)c2cc1OCCCN1CCOCC1 [gefitinib] . Reported solubility?
Output line: > 60 mg/mL

Where do the numbers come from? From patent US20230414515A1.
